Values from patent US8969325B2

target: human TRPV1 (Homo sapiens (Human)); assay: Capsaicin Activation Assay (intracellular Ca2+, FLIPR); conditions: recombinant HEK293 cells expressing hTRPV1, 50 nM capsaicin
Sequence (Q8NER1 whole entry): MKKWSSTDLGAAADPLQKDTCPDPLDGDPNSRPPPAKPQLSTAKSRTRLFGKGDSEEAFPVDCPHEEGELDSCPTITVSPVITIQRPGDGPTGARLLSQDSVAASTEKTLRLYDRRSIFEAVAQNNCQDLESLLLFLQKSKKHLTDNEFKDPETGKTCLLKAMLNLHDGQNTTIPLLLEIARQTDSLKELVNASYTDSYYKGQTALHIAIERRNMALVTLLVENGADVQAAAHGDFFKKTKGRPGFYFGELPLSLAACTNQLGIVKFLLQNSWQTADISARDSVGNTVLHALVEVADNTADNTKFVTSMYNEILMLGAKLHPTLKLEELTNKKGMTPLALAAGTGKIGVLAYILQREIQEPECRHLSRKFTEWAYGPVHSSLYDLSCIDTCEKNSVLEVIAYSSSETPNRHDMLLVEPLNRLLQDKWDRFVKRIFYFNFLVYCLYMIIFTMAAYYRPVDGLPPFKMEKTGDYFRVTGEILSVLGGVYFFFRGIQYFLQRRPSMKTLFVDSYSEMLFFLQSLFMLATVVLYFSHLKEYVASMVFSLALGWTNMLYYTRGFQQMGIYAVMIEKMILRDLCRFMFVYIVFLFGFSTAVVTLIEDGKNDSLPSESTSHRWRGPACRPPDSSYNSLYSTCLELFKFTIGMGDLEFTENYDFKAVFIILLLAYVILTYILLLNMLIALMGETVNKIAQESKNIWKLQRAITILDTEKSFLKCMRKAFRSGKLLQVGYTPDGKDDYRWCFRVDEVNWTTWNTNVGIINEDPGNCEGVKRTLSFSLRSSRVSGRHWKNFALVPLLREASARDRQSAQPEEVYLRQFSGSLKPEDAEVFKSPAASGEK

>  <smilesEntry>
CN1C(=O)CCc2ccc(NC(=O)N[C@@H]3CC(C)(C)Oc4c3ccc(F)c4Cl)cc21

>  <unitSpec>
µM

>  <IC50>
0.92

$$$$
>  <smilesEntry>
CN1C(=O)NCc2c(NC(=O)N[C@@H]3CC(C)(C)Oc4cc(C(F)(F)F)ccc43)cccc21

>  <unitSpec>
µM

>  <IC50>
0.016

$$$$
>  <smilesEntry>
CN1Cc2ccc(NC(=O)N[C@@H]3CC(CF)(CF)Oc4cc(C(F)(F)F)ccc43)cc2NC1=O

>  <unitSpec>
µM

>  <IC50>
0.1

$$$$
>  <smilesEntry>
Cn1c(=O)ccc2c(NC(=O)N[C@@H]3CC(CF)(CF)Oc4ccccc43)cccc21

>  <unitSpec>
µM

>  <IC50>
0.063

$$$$
